assay: Cell Viability - LYMP2-010 (AID 981); conditions: LYMP2-010 lymphoblastoid cell viability, qHTS; series mostly up to 92.2 µM;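 note: cells exposed to compound for 24 hours at 37 °C; nearly all actives have a fitted effect of over 55% in size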
Inconclusive results are not listed. Active and inactive are the calls of the source. Calls come from the whole dose curve; as a rule, active = well fitted cell-killing curve with a large enough effect; inconclusive = small, poorly fitted or top-dose-only effect; inactive = flat fitted curve, though single readings scatter. Peptide text beside a SMILES is read from it.
Respond only with the outcome that fits, drawn from active, inactive

Would you please look over these solved cases?
Just curious, what result did `NS(=O)(=O)c1cc(C(=O)O)c(NCc2ccco2)cc1Cl` get here?
inactive

Another molecule: `c1ccc2[nH]c(-c3cscn3)nc2c1`
inactive

Another molecule: `CC(=O)Nc1ccc(O)cc1`
inactive

Another molecule: COC(=O)[C@H](Cc1ccccc1)NC(=O)[C@@H](N)CC(=O)O (H-Asp-Phe-OMe)
inactive

Another molecule: `CCCc1cc(=O)[nH]c(=S)[nH]1`
inactive

Another molecule: `Nc1ccc(S(N)(=O)=O)cc1`
inactive

---
Just curious, what result did CCCCC(CC)COC(=O)C(C#N)=C(c1ccccc1)c1ccccc1 (stereo not drawn) get here?
inactive

Another molecule: `CN(C)c1ccc2nc3ccc(=[N+](C)C)cc-3sc2c1`
active

###

Tested on: NIH3T3
Assay: Cytotoxic Profiling of Annotated Libraries Using Quantitative High-Throughput Screening (AID 1296008); note: % is set by controls: 0 for no effect and ±100 for the full control effect; nearly all actives have a fitted effect of over 60% in size
Details: Five cell lines viability, CellTiter-Glo ATP luminescence, 48-72 h; stronger effect = lower value
Procedure: Cell-based phenotypic screening is a commonly used approach to discover biological pathways, novel drug targets, chemical probes and high-quality hit-to-lead molecules. […] A pintool (Kalypsys) was used to transfer 23 nL of compound solution to the 1536-well assay plates. […] Plates were left at room temperature for 10 min before imaging the ATP-coupled luminescence using a ViewLux microplate imager (PerkinElmer, Waltham, MA).
Records with an inconclusive call do not appear.
assay.endpoint: max response (%)
Numbers only, in %.

Which max response reading was recorded for the molecule `Nc1ncn([C@H]2C[C@H](O)[C@@H](CO)O2)c(=O)n1` ?
-24.2

Value sought for every listed molecule: max response.
1. CCN(CCO)CCCC(C)Nc1ccnc2cc(Cl)ccc12 (stereo not drawn)
2. COc1cc(C(C)=O)ccc1OCCCN1CCC(c2noc3cc(F)ccc23)CC1

-2.56
-2.71

Value sought for every listed molecule: max response.
1. CN(C)C(=O)COC(=O)Cc1ccc(OC(=O)c2ccc(N=C(N)N)cc2)cc1
2. CCOc1cc(CC(=O)N[C@@H](CC(C)C)c2ccccc2N2CCCCC2)ccc1C(=O)O
3. O=C(O)c1cccnc1Nc1cccc(C(F)(F)F)c1

1. 2.87
2. 4.08
3. -31.9

Value sought for every listed molecule: max response.
1. Cc1cc(=O)c2c(O)c3c(O)cc(=O)c4c3c3c(cc(O)c1c23)C(C)(C)C=4O
2. O=c1c(O)c(-c2ccc(O)cc2O)oc2cc(O)cc(O)c12

1: -0.918; 2: -16.7

###

assay: Cell Viability - LYMP2-005 (AID 967); settings: LYMP2-005 lymphoblastoid cell viability; series mostly up to 92.2 µM;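 note: cells exposed to compound for 24 h at 37 °C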
Results filed as inconclusive are left out. Active and inactive are the calls of the source. The call rests on the fitted dose curve; in most records, active means well fitted cell-killing curve with a large enough effect; inconclusive means small, poorly fitted or top-dose-only effect, or effect the other way; inactive means no such curve, though single readings can be large or run the other way.
Respond only with the outcome that fits, drawn from active, inactive

Would you please look over these solved cases?
Just curious, what result did CCCCC(CC)COC(=O)C(C#N)=C(c1ccccc1)c1ccccc1 (configuration not stated) get here?
inactive

Another molecule: `CN(C)c1ccc2nc3ccc(=[N+](C)C)cc-3sc2c1`
active

Another molecule: `CCc1nc(N)nc(N)c1-c1ccc(Cl)cc1`
inactive

// switching to the query molecule
Just curious, what result did `COc1c2occc2cc2ccc(=O)oc12` get here?
inactive

###

system: DFO2036; experiment: qHTS profiling for inhibitors of Plasmodium falciparum proliferation (AID 504749);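 note: 0% = DMSO vehicle and full inhibition = artemisinin control; nearly all actives have a fitted effect of over 60% in size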; conditions: P. falciparum in erythrocytes, SYBR Green DNA, 72 h; series mostly up to 28.7 µM
Inconclusive results are not listed. Activity calls are given as the source filed them. Calls follow the shape of the dose curve; as a rule, active = well fitted inhibition curve with a large enough effect; inconclusive = small, poorly fitted or top-dose-only effect; inactive = flat fitted curve, though single readings scatter.
Respond only with the outcome that fits, drawn from yes for active, no for inactive

Just curious, what result did CC(S)C(=O)NCC(=O)O (configuration not stated) get here?
no

Another molecule: Nc1ccn([C@@H]2O[C@H](CO)[C@@H](O)C2O)c(=O)n1 (some centres not stated)
no

Another molecule: `CN(C)CCc1c[nH]c2ccc(Cn3cncn3)cc12`
no

###

test system: Tov-21-G; experiment: Primary qHTS to identify gynecologic anti-cancer compounds using libraries of approved drugs and bioactive compounds (AID 1345084); conditions: Gynecologic cancer cell panel viability, ATPlite luminescence, 48 h; series mostly up to 57.5 µM; note: nearly all actives have a fitted effect of over 55% in size
Inconclusive results are not listed. The source made the active and inactive calls. Calls follow the shape of the dose curve; as a rule, active = well fitted cell-killing curve with a large enough effect; inconclusive = small, poorly fitted or top-dose-only effect, or effect the other way; inactive = flat fitted curve, though single readings scatter. Peptide text beside a SMILES is read from it.
Respond only with the outcome that fits, drawn from 1 for active, 0 for inactive

Would you please look over these solved cases?
Just curious, what result did Nc1cccc2c1CN(C1CCC(=O)NC1=O)C2=O (configuration not stated) get here?
0

Another compound: `N[C@@H](Cc1cc(I)c(Oc2cc(I)c(O)c(I)c2)c(I)c1)C(=O)O`
0

Another compound: `CN(C)c1ccc2nc3ccc(=[N+](C)C)cc-3sc2c1`
1

Another compound: `Nc1ncn([C@H]2C[C@H](O)[C@@H](CO)O2)c(=O)n1`
0

Another compound: COCCCOc1ccnc(CS(=O)c2nc3ccccc3[nH]2)c1C (configuration not stated)
0

Another compound: `CN(c1nccc(=O)[nH]1)C1CCN(c2nc3ccccc3n2Cc2ccc(F)cc2)CC1`
0

Another compound: `NC(=O)Cc1cccc(C(=O)c2ccccc2)c1N`
0

Another compound: CCC(C)(Oc1ccc(C2(c3ccc(OC(C)(CC)C(=O)O)cc3)CCCCC2)cc1)C(=O)O (configuration not stated)
0

---
Just curious, what result did O=C(c1ccccc1)c1ccc2n1CCC2C(=O)O (configuration not stated) get here?
0

Another compound: `N=C(N)c1ccc2cc(OC(=O)c3ccc(N=C(N)N)cc3)ccc2c1`
0

Another compound: `COC1=C(OC)C(=O)C(CCCCCCCCCCO)=C(C)C1=O`
0

Another compound: COC(=O)[C@H](Cc1ccccc1)NC(=O)[C@@H](N)CC(=O)O (H-Asp-Phe-OMe)
0

###

experiment: Nrf2 qHTS screen for inhibitors: Validation (AID 493153); conditions: A549 ARE-Fluc reporter, 18-24 h; luciferase luminescence; note: potency is the fitted concentration of half-maximal effect
Inconclusive results are not listed. Activity calls are given as the source filed them. Calls follow the shape of the dose curve; as a rule, active = well fitted inhibition curve with a large enough effect in the main read-out, with a control signal flat (not every such curve was filed as active); inconclusive = small, poorly fitted or top-dose-only effect, or effect the other way, or a change in a side signal; inactive = no such curve, though single readings can be large or run the other way.
assay.endpoint: Potency

Examples with their reported Potency follow.
Which Potency reading was recorded for the molecule `O=c1cc(N2CCOCC2)oc2c(-c3ccccc3)cccc12` ?
9.2 µM (active)

Another molecule: `O=C(CCc1ccc(O)cc1)c1c(O)cc(O)cc1O`
inactive

Another molecule: `Oc1ccc2ccccc2c1SSc1c(O)ccc2ccccc12`
inactive

Another molecule: O=C1c2c(O)cc(O)cc2OC(c2ccc(O)c(O)c2)C1O (configuration not stated)
inactive

Another molecule: C[C@@H](N)C1CCC(C(=O)Nc2ccncc2)CC1 (some centres not stated)
inactive

Another molecule: `CNC[C@H](O)c1ccc(O)c(O)c1`
inactive

---
Which Potency reading was recorded for the molecule `Nc1nc(N)c(N=O)c(OCC2CCCCC2)n1` ?
inactive

###

test: Cell Viability - LYMP2-011 (AID 969); details: LYMP2-011 lymphoblastoid cells viability; series mostly up to 92.2 µM;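 note: cells exposed to compound for 24 hours; nearly all actives have a fitted effect of over 60% in size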
Results filed as inconclusive are left out. The source made the active and inactive calls. Calls come from the whole dose curve; as a rule, active = well fitted cell-killing curve with a large enough effect; inconclusive = small, poorly fitted or top-dose-only effect; inactive = flat fitted curve, though single readings scatter. Peptide text beside a SMILES is read from it.
Respond only with the outcome that fits, drawn from yes (active), no (inactive)

Just curious, what result did `CN(C)c1ccc2nc3ccc(=[N+](C)C)cc-3sc2c1` get here?
yes

---
Just curious, what result did `NS(=O)(=O)c1cc(C(=O)O)c(NCc2ccco2)cc1Cl` get here?
no

Another compound: COC(=O)[C@H](Cc1ccccc1)NC(=O)[C@@H](N)CC(=O)O (H-Asp-Phe-OMe)
no

Another compound: `Nc1ccc(S(N)(=O)=O)cc1`
no

Another compound: `c1ccc2[nH]c(-c3cscn3)nc2c1`
no

Another compound: CCCCC(CC)COC(=O)C(C#N)=C(c1ccccc1)c1ccccc1 (stereo not given)
no

Another compound: `COc1c2occc2cc2ccc(=O)oc12`
no

Another compound: `CS(=O)(=O)OCCCCOS(C)(=O)=O`
no

Another compound: `CC(=O)Nc1ccc(O)cc1`
no

Another compound: `Cc1cc(O)c2c(c1)C(=O)c1cc(O)cc(O)c1C2=O`
no

###

molecular target: Glucocorticoid receptor (Homo sapiens); experiment: GR-EFC Redistribution (AID 451); details: CHO-K1 GR-EFC translocation, beta-gal luminescence, 2 h; note: potency is the fitted concentration of half-maximal effect
Activity calls are given as the source filed them. The call rests on the fitted dose curve.
assay.endpoint: Potency

Which Potency reading was recorded for the molecule `CC(=O)N1CCN(c2ccc(OC[C@H]3CO[C@](Cn4ccnc4)(c4ccc(Cl)cc4Cl)O3)cc2)CC1` ?
> 46 µM (inactive)

Another molecule: `Nc1cc(C(Cl)=C(Cl)Cl)c(S(N)(=O)=O)cc1S(N)(=O)=O`
> 20.6 µM (inactive)

Another molecule: `Nc1ccc(S(N)(=O)=O)cc1`
> 20.6 µM (inactive)

Value sought for every listed molecule: Potency.
1. CC1(C)C(=O)N(CCN2CCC(C(=O)c3ccc(F)cc3)CC2)c2ccccc21
2. C[C@H](Cc1ccc(O)c(O)c1)[C@@H](C)Cc1ccc(O)c(O)c1
3. c1ccc2[nH]c(-c3cscn3)nc2c1
4. COc1c2occc2cc2ccc(=O)oc12
5. O=C1NC(=O)C(c2ccccc2[N+](=O)[O-])=C1Nc1ccc(O)c(Cl)c1

1. > 46 µM (inactive)
2. > 46 µM (inactive)
3. > 20.6 µM (inactive)
4. > 20.6 µM (inactive)
5. > 46 µM (inactive)

Value sought for every listed molecule: Potency.
1. Cc1cccc(C#Cc2ccccc2)n1
2. O=C(CCc1ccc(O)cc1)c1c(O)cc(O)cc1O
3. O=c1c(O)c(-c2ccc(O)cc2O)oc2cc(O)cc(O)c12
4. CCN(CC)CCOc1ccc(Cc2ccccc2)cc1
5. CCCCN(CCCC)CCC(O)c1cc2c(Cl)cc(Cl)cc2c2cc(C(F)(F)F)ccc12 (stereo not given)
6. NCCCCNCCCN
7. CC(C)c1ccc2c(c1)c(SC(C)(C)C)c(CC(C)(C)C(=O)O)n2Cc1ccc(Cl)cc1
8. Cc1cc(O)c2c(c1)C(=O)c1cc(O)cc(O)c1C2=O

1: > 46 µM (inactive); 2: > 46 µM (inactive); 3: > 46 µM (inactive); 4: > 46 µM (inactive); 5: > 20.6 µM (inactive); 6: > 46 µM (inactive); 7: > 46 µM (inactive); 8: > 46 µM (inactive)
